test system: EKVX NSCLC; assay: NCI tumour cell line growth inhibition, 48 h
In this section, each of the molecules is paired with its reported TGI.

Take a look at these entries with their results.
MOLECULE	TGI
O=C1c2cc3c(cc2[C@@H]2[C@H]1c1ccc([N+](=O)[O-])cc1C(=O)N2CCCCl)OCO3	> 100 µM
COc1cc(Br)cc2nc(-c3cccs3)oc12	> 100 µM
CN1C(=O)c2c(c3c4ccccc4n(C4OC(CO)C(O)C(O)C4O)c3c3[nH]c4ccccc4c23)C1=O (centres undefined)	9.09 µM
CO[C@H]1C[C@@H]2CC[C@@H](C)[C@@](O)(O2)C(=O)C(=O)N2CCCC[C@H]2C(=O)O[C@H]([C@H](C)C[C@@H]2CC[C@@H](OP(C)(C)=O)[C@H](OC)C2)CC(=O)[C@H](C)/C=C(\C)[C@@H](O)[C@@H](OC)C(=O)[C@H](C)C[C@H](C)/C=C/C=C/C=C/1C	18.5 µM
CCC1(C(=O)OC)CCc2c(OC)ccc(OC)c2C1=O (centres undefined)	> 100 µM

Request: Notebook entry, EKVX NSCLC assay: TGI of CC1=C(C#N)C2C(=C(N)Oc3ccccc32)C(N)=N1 (centres undefined) = ?
Result: 73.8 µM

Request: Notebook entry, EKVX NSCLC assay: TGI of CC(=O)OCC1OC(n2c(=O)n(-c3ccccc3)c(=O)c3cc(Br)cc(Br)c32)C(OC(C)=O)C(OC(C)=O)C1OC(C)=O (centres undefined) = ?
Result: > 100 µM

---

In this section, each of the compounds is paired with its reported TGI.
test system: DU-145 prostate; assay: NCI tumour cell line growth inhibition, 48 h
Where a SMILES comes first, the peptide text is derived from it.

COMPOUND	TGI
CC(=O)NC(CS)C(=O)NC(CO)C(=O)NC(CO)C(=O)NC(Cc1c[nH]c2ccccc12)C(=O)N1CCCC1C(=O)NC(CO)C(=O)NC(Cc1c[nH]c2ccccc12)C(=O)NC(Cc1c[nH]cn1)C(=O)NC(CO)C(=O)NC(Cc1c[nH]c2ccccc12)C(=O)NCC(=O)NCC(=O)NC(CC(=O)O)C(=O)NC(CCC(N)=O)C(=O)NC(CCCCN)C(=O)NC(Cc1ccccc1)C(=O)NC(CCCNC(=N)N)C(=O)NC(CCCCN)C(N)=O (centres undefined) (Ac-CSSWPSWHSWGGDQKFRK-NH2; configuration not given here)	> 25 µM
CCOC(=O)CCC(NC(=O)c1ccc(Nc2nc3ccccc3n3cccc23)cc1)C(=O)OCC (centres undefined)	97.7 µM
O=C(OCC1OC(OC(=O)c2cc(O)c(O)c(OC(=O)c3cc(O)c(O)c(O)c3)c2)C(OC(=O)c2cc(O)c(O)c(OC(=O)c3cc(O)c(O)c(O)c3)c2)C(OC(=O)c2cc(O)c(O)c(OC(=O)c3cc(O)c(O)c(O)c3)c2)C1OC(=O)c1cc(O)c(O)c(OC(=O)c2cc(O)c(O)c(O)c2)c1)c1cc(O)c(O)c(OC(=O)c2cc(O)c(O)c(O)c2)c1 (centres undefined)	> 50 µM
COc1ccc(C2CC(=O)CC(c3ccc(OC)cc3)C23C(=O)NC(=S)NC3=O)cc1 (centres undefined)	> 100 µM
S=C(N/N=C(/c1ccccc1)c1ccccn1)Nc1ccc(Cl)cc1	11.6 µM

Request: Notebook entry, DU-145 prostate assay: TGI of "COc1ccc2c(c1)CC[C@@H]1[C@@H]2CC[C@]2(C)C(=O)/C(=C/c3ccncc3)C[C@@H]12" = ?
Result: > 100 µM

Request: Notebook entry, DU-145 prostate assay: TGI of Cn1c(=O)c2c(nc(N)n2C2OC(CO)C(O)C2O)n(C)c1=O (centres undefined) = ?
Result: > 100 µM

Request: Notebook entry, DU-145 prostate assay: TGI of "CN1CCCC1=NC#N" = ?
Result: > 100 µM

Request: Notebook entry, DU-145 prostate assay: TGI of "CCN(CC)CCn1c2cc3c(cc2c(=O)c2cccnc21)OCO3" = ?
Result: > 10 µM

---

tested on: NCI-H460 lung; experiment: NCI tumour cell line growth inhibition, 48 h
In this section, each of the compounds is paired with its reported TGI.

Take a look at these entries with their results.
In [3]: df
Out[3]:
                                   compound  measured_target  endpoint_name  measured
0  Nc1c(C(=O)c2cccc(C#CCN3CCOCC3)c2)cnn1-c1ccc(F)cc1    NCI-H460 lung            TGI   > 25 µM
1  O=C1CSC(c2ccc(Cl)cc2)N1c1ccc(-c2ccc(-n3c(-c4ccccc4)nc4ccccc4c3=O)cc2)cc1 (stereo not given)    NCI-H460 lung            TGI  > 100 µM
2  COC(=O)[C@@H]1C2OC(C)(C)OC2CN1C(=O)OCc1ccccc1 (stereo not given in full)    NCI-H460 lung            TGI  > 100 µM

Request: Endpoint output: TGI of "O=C(/C=C\c1ccccc1)Oc1ccc(/C=C2\CCCCC2=O)cc1" . Value?
Result: > 100 µM

Request: Endpoint output: TGI of CC(=O)C1C(=O)C(=O)N(c2ccccc2N2C(=O)C(=O)C(C(C)=O)C2=O)C1=O (stereo not given) . Value?
Result: > 100 µM

---

system: U251 CNS; test: NCI tumour cell line growth inhibition, 48 h
Classify by measured TGI: criterion met if it is equal to or exceeds 30 µM, criterion not met if it is smaller.

See these solved cases before continuing.
>>> df
                                   molecule     assigned_class
0                  O=C(O)C1=NNC(C(=O)O)=NN1      criterion met
1  CCN1C(=O)c2ccccc2C1(O)c1ccc(Cl)cc1 (stereo unspecified)      criterion met
2     COc1cc2ccnc3c2c(c1OC)-c1ccc(=O)ccc1-3      criterion met
3   Cn1c(Sc2ccc(-c3cccnc3)n2C)ccc1-c1cccnc1  criterion not met
4  CN1C(=O)c2c(c3c4ccccc4n(C4OC(CO)C(O)C(O)C4O)c3c3[nH]c4ccccc4c23)C1=O (stereo unspecified)  criterion not met
5          Nc1ccc2cc3[nH]c4cc(N)ccc4c3nc2c1  criterion not met

Request: For this molecule, is measured TGI 30 µM or higher? "Nc1ccc2c(c1)CC1c3ccccc3C(C2)c2ccccc21"
Result: criterion met

Request: For this molecule, is measured TGI 30 µM or higher? "Cc1cc(N(CCCCl)CCCCl)ccc1C=Nc1cccc(Cl)c1"
Result: criterion met

---

system: MCF7 breast; experiment: NCI tumour cell line growth inhibition, 48 h; in the data active means GI50 below about 0.43 µM; inactive means the rest
Answer with one of the outcomes given here: Y = active, N = inactive

                            compound_smiles  assigned_class
0  c1ccc(-c2nnc(Nc3ccc4c(c3)OCCO4)o2)c(NCc2ccncc2)c1               Y

Request: Could you please tell me the result logged for "Cc1ncc(C(=O)Nc2ccc(CN3CCN(C)CC3)c(C(F)(F)F)c2)cc1C#Cc1cnc(N)c2ncccc12" in this assay?
Result: N

Request: Could you please tell me the result logged for "CCOC(=O)c1ccc(Nc2sc(C(=O)c3cccc([N+](=O)[O-])c3)c(N)c2C#N)cc1" in this assay?
Result: Y

Request: Could you please tell me the result logged for "Nc1c(C(=O)c2cccc(CCC3(O)CCCC3)c2)cnn1-c1ccc(F)cc1" in this assay?
Result: N

Request: Could you please tell me the result logged for "N#CSCc1c(Cl)cccc1Cl" in this assay?
Result: N

---

system: NCI/ADR-RES ovarian; experiment: NCI tumour cell line growth inhibition, 48 h
In this section, each of the compounds is paired with its reported GI50.

COMPOUND SMILES	MEASURED
Fc1ccc(-c2nnc3sc(COc4ccccc4Cl)nn23)cc1Cl	40.8 µM
Cc1ccc2c(Nc3cccc(Cl)c3F)ncc(NC(=O)c3csc4c(N)ncnc34)c2c1	> 100 µM

Request: Endpoint output: GI50 of "CO[C@H]1C[C@@H]2CC[C@@H](C)[C@@](O)(O2)C(=O)C(=O)N2CCCC[C@H]2C(=O)O[C@H]([C@H](C)C[C@@H]2CC[C@@H](OP(C)(C)=O)[C@H](OC)C2)CC(=O)[C@H](C)/C=C(\C)[C@@H](O)[C@@H](OC)C(=O)[C@H](C)C[C@H](C)/C=C/C=C/C=C/1C" . Value?
Result: 11 µM

---

tested on: NCI-H460 lung; test: NCI tumour cell line growth inhibition, 48 h
In this section, each of the compounds is paired with its reported TGI.
Lab book: enter the figure in µM, no units written.

Take a look at these entries with their results.
COMPOUND	MEASURED TARGET	TGI [µM]
CO[C@H]1C[C@@H]2CC[C@@H](C)[C@@](O)(O2)C(=O)C(=O)N2CCCC[C@H]2C(=O)O[C@H]([C@H](C)C[C@@H]2CC[C@@H](OP(C)(C)=O)[C@H](OC)C2)CC(=O)[C@H](C)/C=C(\C)[C@@H](O)[C@@H](OC)C(=O)[C@H](C)C[C@H](C)/C=C/C=C/C=C/1C	NCI-H460 lung	21.8
CN1C(=O)c2c(c3c4ccccc4n(C4OC(CO)C(O)C(O)C4O)c3c3[nH]c4ccccc4c23)C1=O (stereo unspecified)	NCI-H460 lung	12.1
ClC1=NC(Cl)C(Cl)=N/C1=N\c1ncn[nH]1 (stereo unspecified)	NCI-H460 lung	14.9

Request: Endpoint output: TGI of COc1cc2c(cc1Oc1ccc(OC)c3c1CC1c4c(cc(OC)c(OC)c4-3)CCN1C)CC1c3c(cc(OC)c(OC)c3-2)CCN1C (stereo unspecified) . Value?
Result: 3.88

Request: Endpoint output: TGI of "CCOC(=O)Cn1c(C)c(/C=N/NC(=O)c2cc3c(ccc4ccccc43)o2)c2ccccc21" . Value?
Result: 1.79

Request: Endpoint output: TGI of "COc1cc(/C=C/c2ccc(OC(C)=O)cc2)cc(OC)c1OC" . Value?
Result: 91.6

Request: Endpoint output: TGI of "CCN(CC)CCCOc1cc(O)c2c(=O)cc(-c3ccccc3)oc2c1" . Value?
Result: 14.6

Request: Endpoint output: TGI of CCC[CH2][Ge]([CH2]CCC)([CH2]CCC)[O]C(=O)C(O)c1ccccc1 (stereo unspecified) . Value?
Result: 34.9

Request: Endpoint output: TGI of CC[N+]1(C)CCC(O)(c2ccccc2)C(C(=O)c2ccccc2)C1 (stereo unspecified) . Value?
Result: 43

Request: Endpoint output: TGI of "CC(C)[Si](OC1=C(C(=O)N(C)c2ccccc2Cl)CCCC1)(C(C)C)C(C)C" . Value?
Result: 28.6

Request: Endpoint output: TGI of "Cn1c(Sc2ccc(-c3cccnc3)n2C)ccc1-c1cccnc1" . Value?
Result: 31.1
